# test_name: physchem
# Format: physicochemical
# reported_conditions: Table S2; n-octanol/PBS pH 7.4; incubation 2
experimental_readout: D (partition ratio), incubation 2

Completed entries (count: 5):
O=C(N[C@@H]1[C@H]2C[C@]1(c1ccc(Cl)cc1)CO2)c1cccnc1Cl (relative stereo) | 3.16E+03
O=C(NC1CCN(CCCCC2(C(=O)NCC(F)(F)F)c3ccccc3-c3ccccc32)CC1)c1ccccc1-c1ccc(C(F)(F)F)cc1 [Lomitapide, reference compound] | 3.42E+05
O=C(NC1CCN(CCCCC2(C(=O)NCC(F)(F)F)c3ccccc3-c3ccccc32)CC1)[C@@H]1[C@@H]2CC[C@@]1(c1ccc(C(F)(F)F)cc1)C2 (relative stereo) | 3.40E+06
O=C(O)[C@@H]1[C@@H]2CC[C@@]1(C(=O)Nc1ccc(S(=O)(=O)Nc3nccs3)cc1)C2 (relative stereo) | 3.23E-02
O=C(O)C1C2CC1(C(=O)Nc1ccc(S(=O)(=O)Nc3nccs3)cc1)CO2 (stereo not shown) | 1.93E-02

[I] O=C(O)c1ccccc1C(=O)Nc1ccc(S(=O)(=O)Nc2nccs2)cc1 [Phthalylsulfathiazole, reference compound]
[II] O=C(NC1CCN(CCCCC2(C(=O)NCC(F)(F)F)c3ccccc3-c3ccccc32)CC1)[C@@H]1[C@H]2C[C@]1(c1ccc(C(F)(F)F)cc1)CO2 (relative stereo)
[III] COC(=O)Nc1nc2ccc(C(=O)c3ccccc3)cc2[nH]1 [Mebendazole, reference compound]
[IV] Cn1cc(C(=O)N[C@@H]2[C@H]3C[C@]2(c2cc(F)c(F)c(F)c2)CO3)c(C(F)F)n1 (relative stereo)
[V] O=C(N[C@@H]1[C@@H]2CC[C@@]1(c1ccc(Cl)cc1)C2)c1cccnc1Cl (relative stereo)
Arrange items by their D (partition ratio), incubation 2 values in increasing order. In your reply, arrange the labels in the requested order.
I, V, IV, III, II
